The reported numbers originate from ChEMBL document CHEMBL4706703.

# inhibition at […], 10 µM per record follows
test_system: UniProt Q9JKC1
Sequence (Q9JKC1 whole entry): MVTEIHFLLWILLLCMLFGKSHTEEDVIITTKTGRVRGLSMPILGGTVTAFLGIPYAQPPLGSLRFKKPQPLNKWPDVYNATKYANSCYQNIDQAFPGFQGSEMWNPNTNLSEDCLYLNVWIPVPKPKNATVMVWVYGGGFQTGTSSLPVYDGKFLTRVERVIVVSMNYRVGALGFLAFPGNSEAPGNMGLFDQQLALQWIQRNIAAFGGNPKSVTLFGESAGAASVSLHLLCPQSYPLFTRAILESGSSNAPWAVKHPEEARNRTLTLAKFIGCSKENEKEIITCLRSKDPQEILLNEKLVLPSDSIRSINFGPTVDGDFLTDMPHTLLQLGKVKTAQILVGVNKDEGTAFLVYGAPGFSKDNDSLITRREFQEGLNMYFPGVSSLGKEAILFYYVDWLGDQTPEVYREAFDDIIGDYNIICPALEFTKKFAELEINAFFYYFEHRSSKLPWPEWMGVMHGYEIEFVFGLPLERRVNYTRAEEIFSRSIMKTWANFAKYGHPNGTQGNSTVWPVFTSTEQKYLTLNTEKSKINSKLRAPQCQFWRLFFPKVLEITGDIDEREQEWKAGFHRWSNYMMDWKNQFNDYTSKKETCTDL
measurement_description: Inhibition of rat serum BuChE at 10 uM using butyrylthiocholine iodide as substrate incubated for 15 mins by Ellman's method relative to control
Assay type: cell-free
condition_info: probe butyrylthiocholine iodide
Just the number in %, nothing appended.

Below, 3 compounds whose answers are already recorded.
CCN(CC)c1ccc(/C=C2/OC(=O)c3cc(OC)c(OC)cc32)cc1O = 5.7
COc1cc2c(cc1OC)/C(=C\c1cccc(O)c1N1CCCC1)OC2=O = 49.6
COc1cc2c(cc1OC)/C(=C\c1ccc(N3CCCC3)c(O)c1)OC2=O = 16.5

Task: Find the recorded inhibition at […], 10 µM belonging to COc1cc2c(cc1OC)C(Cc1ccc(N3CCCC3)c(O)c1)OC2=O (stereo unspecified) and report it.
Result: 19.8

Task: Find the recorded inhibition at […], 10 µM belonging to `COc1cc2c(cc1OC)/C(=C\c1cccc(O)c1N1CCCCC1)OC2=O` and report it.
Result: 16.4

Task: Find the recorded inhibition at […], 10 µM belonging to `COc1cc2c(cc1OC)/C(=C\c1ccc(O)c(N3CCCCC3)c1)OC2=O` and report it.
Result: 27.6

Task: Find the recorded inhibition at […], 10 µM belonging to `CCN(CC)c1c(O)cccc1/C=C1/OC(=O)c2cc(OC)c(OC)cc21` and report it.
Result: 31.4

Task: Find the recorded inhibition at […], 10 µM belonging to `COc1cc2c(cc1OC)/C(=C\c1ccc(N3CCN(C)CC3)c(O)c1)OC2=O` and report it.
Result: 5.5

Task: Find the recorded inhibition at […], 10 µM belonging to `CCN(CC)c1cc(/C=C2\OC(=O)c3cc(OC)c(OC)cc32)ccc1O` and report it.
Result: 15.7

Task: Find the recorded inhibition at […], 10 µM belonging to COc1cc2c(cc1OC)C(Cc1ccc(N3CCCCC3)c(O)c1)OC2=O (stereo unspecified) and report it.
Result: 10.3

Task: Find the recorded inhibition at […], 10 µM belonging to `COc1cc2c(cc1OC)/C(=C\c1ccc(N3CCCCC3)c(O)c1)OC2=O` and report it.
Result: 26.2

* * *

test_system: Amine oxidase [flavin-containing] B (Homo sapiens, UniProt P27338)
Sequence (P27338 whole entry): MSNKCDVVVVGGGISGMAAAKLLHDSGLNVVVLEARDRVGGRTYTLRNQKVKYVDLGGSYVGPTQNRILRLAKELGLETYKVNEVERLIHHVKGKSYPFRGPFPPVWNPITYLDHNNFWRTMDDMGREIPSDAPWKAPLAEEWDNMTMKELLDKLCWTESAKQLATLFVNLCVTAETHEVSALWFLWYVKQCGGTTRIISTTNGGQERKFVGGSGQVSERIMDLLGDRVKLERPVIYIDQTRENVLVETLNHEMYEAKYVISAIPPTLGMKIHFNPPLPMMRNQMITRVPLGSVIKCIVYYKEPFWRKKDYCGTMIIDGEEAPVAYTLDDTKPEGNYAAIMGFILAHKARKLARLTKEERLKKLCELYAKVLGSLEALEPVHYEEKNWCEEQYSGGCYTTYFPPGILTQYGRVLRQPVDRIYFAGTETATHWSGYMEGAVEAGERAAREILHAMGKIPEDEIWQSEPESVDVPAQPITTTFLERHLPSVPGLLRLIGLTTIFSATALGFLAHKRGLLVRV
measurement_description: Inhibition of recombinant human MAOB at 10 uM using kynuramine as substrate preincubated for 30 mins followed by substrate addition and measured after 30 mins by fluorescence assay relative to control
condition_info: 0.5 h
measured_endpoint: inhibition at 10 µM

CCN(CC)c1cc(/C=C2\OC(=O)c3cc(OC)c(OC)cc32)ccc1O = 46.2%
CCN(CC)c1c(O)cccc1/C=C1\OC(=O)c2cc(OC)c(OC)cc21 = 44.9%
CCN(CC)c1ccc(CC2OC(=O)c3cc(OC)c(OC)cc32)cc1O (stereo not drawn) = < 5%

Task: Find the recorded inhibition at 10 µM belonging to COc1cc2c(cc1OC)C(Cc1cccc(O)c1N1CCOCC1)OC2=O (stereo not drawn) and report it.
Result: 19.1%

Task: Find the recorded inhibition at 10 µM belonging to `COc1cc2c(cc1OC)/C(=C\c1ccc(N3CCN(C)CC3)c(O)c1)OC2=O` and report it.
Result: 31.4%

Task: Find the recorded inhibition at 10 µM belonging to COc1cc2c(cc1OC)C(Cc1cccc(O)c1N1CCCCC1)OC2=O (stereo not drawn) and report it.
Result: 15.6%

Task: Find the recorded inhibition at 10 µM belonging to `COc1cc2c(cc1OC)/C(=C\c1ccc(N3CCCC3)c(O)c1)OC2=O` and report it.
Result: 27.8%

Task: Find the recorded inhibition at 10 µM belonging to COc1cc2c(cc1OC)C(Cc1cccc(O)c1)OC2=O (stereo not drawn) and report it.
Result: 6.2%

Task: Find the recorded inhibition at 10 µM belonging to `COc1cc2c(cc1OC)/C(=C/c1ccc(N3CCOCC3)c(O)c1)OC2=O` and report it.
Result: 50.2%
